system.under.test: T1, human EGFRvIII expressed on cells (human, UniProt P00533 298-1210)
T1 construct: the F98-npEGFRvIII line was obtained from ATCC and its construct is not described; also called F98-npEGFRvIII; F98-EGFRvIII
assay.method.text: flow cytometry, F98-npEGFRvIII cells
property: % positive (%)
Give the number; % is assumed, so skip it.

Example entries begin here.
>  <binder>
20E12 (antibody, V domains shown, Hybridoma supernatant (AlivaMab mouse); captured/detected via mouse Fc) VH: EVNLVESGGGLVKPGGSLRLSCEASGFTFSYAWMSWVRQAPGKGLEWVGRIKSIADGGATDYAAPVRNRFTISRDDSRNTLYLEMHSLKTEDTAVYYCTTIPGNDAFDMWGQGTMVTVSS VL: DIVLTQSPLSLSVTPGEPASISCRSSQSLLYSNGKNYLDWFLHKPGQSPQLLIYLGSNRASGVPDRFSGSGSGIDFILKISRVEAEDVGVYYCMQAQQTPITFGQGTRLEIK

>  <% positive (%)>
97.9

$$$$
>  <binder>
30D8 (antibody, V domains shown, Hybridoma supernatant (AlivaMab mouse); captured/detected via mouse Fc) VH: EVQLVESGGGLVKPGGSLRLSCEASGFTFSDAWMSWVRQAPGKGLEWVGRIKSKTDGGTTDYVVPLNGRFIISRDDSRNTLYLQLNNLKTEDTAVYYCTTVPGSYGYWGQGTLVTVSS VL: DIVMTQSPLSLPVTPGEPASISCRSSQSLLHNKRNNYLDWFLQKPGQSPQLLIYLASNRASGVPDRFSGGGSGTDFTLKISRVEAEDVGVYYCMQAQQTPITFGQGTRLEIK

>  <% positive (%)>
98.6

$$$$
>  <binder>
34E7 (antibody, V domains shown, Hybridoma supernatant (AlivaMab mouse); captured/detected via mouse Fc) VH: EVNLVESGGGLVKPGGSLRLSCEASGFTFSYAWMSWVRQAPGKGLEWVGRIKSINDGGATDYASPVRNRFTISRDDSRNMLYLEMHSLKTEDTAVYYCTTIPGNDAFDMWGQGTLVTVSS VL: DIVLTQSPLSLSVTPGEPASISCRSTQSLLYSNGKNYLDWFLHKPGQSPQLLIFLGSIRASGVPDRFSGSGSGIDFILKISRVEAEDVGVYYCMQAQQTPITFGQGTRLEIK

>  <% positive (%)>
98.5

$$$$
>  <binder>
20G5 (antibody, V domains shown, Hybridoma supernatant (AlivaMab mouse); captured/detected via mouse Fc) VH: EVQLVESGGDLVKPGGSLRLSCAASGFTFTNAWMSWVRQAPGKGLEWVGRIKSKIDGGTTDYAAPVKGRFIISRDDSKNTLSLQMNSLKTEDTAMYYCTTAPGGPFDYWGQGSLVTVSS VL: DIVLTQSPLSLPVTPGEPASISCRSSQSLLYSDRRNYLDWFLQKPGQSPHLLIYLGSYRASGVPDRFSGSGSGTDFTLKISRVEAEDVGVYYCMQALQIPITFGQGTRLEIK

>  <% positive (%)>
98.5

$$$$
>  <binder>
32G8 (antibody, V domains shown, Hybridoma supernatant (AlivaMab mouse); captured/detected via mouse Fc) VH: EVNLVESGGGLVKPGGSLRLSCEASGFTFSYAWMSWVRQAPGKGLEWVGRIKSITDGGVIDYAAPVRNRCTISRDDSRNTLYLEMHSLKTEDTAVYYCTTIPGNDDFDMWGQGRMVTVSS VL: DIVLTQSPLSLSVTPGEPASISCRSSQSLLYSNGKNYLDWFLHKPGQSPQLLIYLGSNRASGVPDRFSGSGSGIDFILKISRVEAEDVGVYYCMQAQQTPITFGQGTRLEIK

>  <% positive (%)>
98.6

$$$$

Turning now to a further record.
Supply reported % positive belonging to this binder: 26B9 (antibody, V domains shown, Hybridoma supernatant (AlivaMab mouse); captured/detected via mouse Fc) VH: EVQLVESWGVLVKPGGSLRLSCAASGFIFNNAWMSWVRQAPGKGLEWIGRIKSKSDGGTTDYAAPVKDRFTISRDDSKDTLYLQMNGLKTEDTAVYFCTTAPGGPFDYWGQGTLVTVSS VL: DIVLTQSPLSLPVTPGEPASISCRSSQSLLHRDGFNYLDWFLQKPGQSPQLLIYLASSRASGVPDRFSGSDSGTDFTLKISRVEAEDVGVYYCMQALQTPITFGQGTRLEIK
98.6
